System: Oxysterols receptor LXR-alpha (Homo sapiens) | Read-out: pIC50 | Origin: multiple publications
Reminder that pIC50 is minus the log10 of a molar concentration.

Cc1nc2c(Cl)cccc2n1-c1cccc(Oc2cc(S(C)(=O)=O)ccc2Br)c1 : 6.19
COc1cccc(S(=O)(=O)N2CCN(c3ccccc3)C(C(=O)N3CCN(c4cc(C)ccc4C)CC3)C2)c1 (centres unmarked) : 5.39
CC(C)c1nc(-c2cccc(-c3cccc(S(C)(=O)=O)c3)c2)c2cccc(C(F)(F)F)c2n1 : 5.49
NCCCCS(=O)(=O)c1cccc(Oc2ccc(F)c(-c3ncnc4c(Cl)cccc34)c2)c1 : 4.94
CS(=O)(=O)c1cccc(-c2ccc(CN(CCN3CCCC3)S(=O)(=O)c3ccccc3C(F)(F)F)s2)c1 : 4.97
CCCN(Cc1cccc(-c2cccc(S(C)(=O)=O)c2)c1)S(=O)(=O)C(C)C : 4.70

Please find the next molecule below.
What the record says about `CCc1nc2c(C#N)cccn2c1-c1cccc(Oc2cccc(S(=O)(=O)N(C)Cc3ccc(OC)cc3)c2)c1` : pIC50 is 7.19
